For each of the compounds below, state its pIC50.
- experimentalTarget: baculovirus-expressed ALK (Homo sapiens)
- Construct: host or cells: baculovirus expression system
- Sequence (Q9UM73 19-1620): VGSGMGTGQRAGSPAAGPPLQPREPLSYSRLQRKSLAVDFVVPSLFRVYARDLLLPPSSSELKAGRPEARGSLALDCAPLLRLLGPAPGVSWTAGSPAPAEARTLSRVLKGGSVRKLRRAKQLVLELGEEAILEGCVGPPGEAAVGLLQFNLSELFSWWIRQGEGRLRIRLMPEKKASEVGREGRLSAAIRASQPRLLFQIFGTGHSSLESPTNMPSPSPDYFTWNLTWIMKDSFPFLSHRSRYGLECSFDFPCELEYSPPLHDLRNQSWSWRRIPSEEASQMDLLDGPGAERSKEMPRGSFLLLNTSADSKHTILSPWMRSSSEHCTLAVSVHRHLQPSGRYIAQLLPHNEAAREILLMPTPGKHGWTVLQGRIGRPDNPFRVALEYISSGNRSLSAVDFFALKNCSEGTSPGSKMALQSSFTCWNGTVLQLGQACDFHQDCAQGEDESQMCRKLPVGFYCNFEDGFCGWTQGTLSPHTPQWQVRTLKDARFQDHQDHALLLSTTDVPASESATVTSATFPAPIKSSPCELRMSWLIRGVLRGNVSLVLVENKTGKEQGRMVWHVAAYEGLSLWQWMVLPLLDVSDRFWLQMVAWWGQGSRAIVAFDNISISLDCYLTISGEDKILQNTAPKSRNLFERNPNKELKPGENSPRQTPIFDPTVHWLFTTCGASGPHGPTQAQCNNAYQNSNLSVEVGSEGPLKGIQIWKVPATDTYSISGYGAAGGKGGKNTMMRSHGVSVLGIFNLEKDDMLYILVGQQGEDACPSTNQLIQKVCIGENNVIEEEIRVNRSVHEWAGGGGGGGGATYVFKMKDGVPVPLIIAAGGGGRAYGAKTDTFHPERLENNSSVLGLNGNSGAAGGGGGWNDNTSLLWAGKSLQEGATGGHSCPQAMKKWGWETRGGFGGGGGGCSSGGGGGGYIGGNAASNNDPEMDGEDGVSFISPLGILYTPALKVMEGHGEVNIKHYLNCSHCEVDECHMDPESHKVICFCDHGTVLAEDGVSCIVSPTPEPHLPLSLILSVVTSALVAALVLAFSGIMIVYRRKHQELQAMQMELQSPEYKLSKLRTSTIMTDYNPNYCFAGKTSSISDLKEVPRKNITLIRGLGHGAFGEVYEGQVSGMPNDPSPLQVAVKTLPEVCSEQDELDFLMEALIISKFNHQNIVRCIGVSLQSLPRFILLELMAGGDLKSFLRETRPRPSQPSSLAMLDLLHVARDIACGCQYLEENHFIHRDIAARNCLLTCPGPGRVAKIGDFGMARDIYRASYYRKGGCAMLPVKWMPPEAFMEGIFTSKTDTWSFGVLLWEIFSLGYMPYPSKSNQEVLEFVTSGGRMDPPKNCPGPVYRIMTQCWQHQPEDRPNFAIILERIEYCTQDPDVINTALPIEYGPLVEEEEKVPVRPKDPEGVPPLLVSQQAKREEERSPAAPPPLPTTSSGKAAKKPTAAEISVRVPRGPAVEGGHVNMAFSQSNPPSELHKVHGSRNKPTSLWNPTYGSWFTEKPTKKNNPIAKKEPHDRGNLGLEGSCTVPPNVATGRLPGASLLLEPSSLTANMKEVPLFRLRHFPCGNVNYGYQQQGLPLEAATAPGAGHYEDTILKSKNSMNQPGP
- protocolText: ALK Kinase Assay (ELISA-type, time-resolved fluorescence)
- Format: biochemical
- testContext: ALK kinase inhibition, 1 μM ATP (Km level); read-out: ALK Activity
pIC50: −log10 of the molar value.

Provide reported pIC50 for each item, in the same order as listed.
1. CN1C(=O)CCCc2ccc(Nc3ncc(Cl)c(N[C@@H]4CCCC[C@H]4NS(C)(=O)=O)n3)cc21
2. COCCN1CCc2ccc(Nc3ncc(Cl)c(N[C@@H]4CCC[C@H]4NS(C)(=O)=O)n3)cc2CC1 (relative stereo)

Ans.
1: > 7.00; 2: 6.00 to 7.00

# map each compound to its pIC50
1. CNC(=O)c1ccccc1Nc1nc(Nc2ccc3c(c2Cl)C2CCC(C3)N2CCOC)ncc1Cl (stereo not drawn)
2. CCN1C(=O)CCCc2cc(Nc3ncc(Cl)c(N[C@@H]4CCCC[C@H]4NS(C)(=O)=O)n3)c(OC)cc21
3. COC(CN1CCc2ccc(Nc3ncc(Cl)c(NC4C5C=CC(C5)C4C(N)=O)n3)cc2CC1)C(F)(F)F (mixture of isomers)
4. CS(=O)(=O)N[C@@H]1CCCC[C@H]1Nc1nc(Nc2ccc3c(c2)C2CCC3CN(S(C)(=O)=O)C2)ncc1Cl (stereo partly drawn)
5. COc1cc2c(cc1Nc1ncc(Cl)c(N[C@@H]3CCCC[C@H]3NS(C)(=O)=O)n1)CCN(C(=O)C(F)(F)F)CC2
6. CNC(=O)c1ccccc1Nc1nc(Nc2cccc3c2C(=O)N(C)CCN3C)ncc1Cl

Ans.
["> 7.00", "> 7.00", "> 7.00", "> 7.00", "> 7.00", "5.00 to 6.00"]

----------
- experimentalTarget: c-Met (cytoplasmic domain) (Homo sapiens)
- Construct: 10 ng/mL c-Met (cytoplasmic domain, Invitrogen Corporation #PV3143); purchased Invitrogen Corporation PV3143
- Sequence (P08581 956-1390 limits assumed): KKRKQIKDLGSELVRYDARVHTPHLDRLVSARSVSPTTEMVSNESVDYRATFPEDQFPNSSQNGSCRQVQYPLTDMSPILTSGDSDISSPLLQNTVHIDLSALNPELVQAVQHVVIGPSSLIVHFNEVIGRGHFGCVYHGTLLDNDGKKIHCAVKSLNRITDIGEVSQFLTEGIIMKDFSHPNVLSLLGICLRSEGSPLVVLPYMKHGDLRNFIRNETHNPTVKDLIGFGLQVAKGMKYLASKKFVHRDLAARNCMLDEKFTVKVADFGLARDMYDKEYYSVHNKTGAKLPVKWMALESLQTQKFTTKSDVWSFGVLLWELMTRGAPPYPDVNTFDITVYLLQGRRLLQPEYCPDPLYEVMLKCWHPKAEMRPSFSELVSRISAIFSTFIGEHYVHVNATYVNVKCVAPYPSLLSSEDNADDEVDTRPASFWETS
- protocolText: c-Met Kinase Assay (same methods as for ALK, with modifications)
- Assay type: biochemical
- testContext: 1 μM ATP (Km level), 10 ng/mL c-Met; read-out: cMet Activity (c-Met kinase inhibition, IC50 class)
Kindly state IC50 for each of the entries shown.

COc1cc2c(cc1Nc1ncc(Cl)c(Nc3ccccc3S(=O)(=O)C(C)C)n1)CCN(CCS(C)(=O)=O)CC2 [Example 1164]	1000 to 10000 nM

Report IC50 for every entry below.
1. COc1ccc2c(c1Nc1ncc(Cl)c(N[C@@H]3CCCC[C@H]3NS(C)(=O)=O)n1)CCC(NCC(F)F)CC2 (single isomer, unassigned) [Example 1075]
2. COCCN1CCc2ccc(Nc3ncc(Cl)c(Nc4c(OC)cccc4C(=O)NCC#N)n3)cc2CC1 [Example 1063]
3. COCCN1CCc2ccc(Nc3ncc(Cl)c(Nc4ccccc4OCC#N)n3)cc2CC1 [Example 1240]
4. CNC(=O)c1ccccc1Nc1nc(Nc2ccc3c(c2)CNC(=O)CCN3)ncc1Cl [Example 1302]
5. C#CCNC(=O)c1cccc(F)c1Nc1nc(Nc2ccc3c(c2)OCCCN3CC)ncc1Cl [Example 1407]

Ans.
1: > 10000 nM; 2: 100 to 1000 nM; 3: < 100 nM; 4: < 100 nM; 5: < 100 nM

Can you give me IC50 for all of these, one by one?
1. CN(C)S(=O)(=O)c1ccccc1Nc1nc(Nc2ccc3c(c2)CCC(O)CC3)ncc1Cl (stereo not shown) [Example 1033]
2. CNS(=O)(=O)c1ccccc1Nc1nc(Nc2ccc3c(c2)CNC(=O)CCN3C(=O)C(F)(F)F)ncc1Cl [Example 1303]
3. COCCOc1ccc(Nc2nc(Nc3cc4c(cc3OC)CCN(CC(=O)N(C)C)CC4)ncc2Cl)c(S(=O)(=O)C(C)C)c1 [Example 1189]
4. CNC(=O)c1cc(N(C)C)ccc1Nc1nc(Nc2ccc3c(c2)NC(=O)CCC3)ncc1Cl [Example 1412]
5. COc1cc2c(cc1Nc1ncc(Cl)c(Nc3ccccc3S(=O)(=O)C(C)C)n1)CCN(CC(=O)N1CCCC1)CC2 [Example 1158]
6. CC(C)S(=O)(=O)c1ccccc1Nc1nc(Nc2ccc3c(c2)CCC(N2CCOCC2)CC3)ncc1Cl (stereo not shown) [Example 1036]
7. CCN1C(=O)[C@H](N(C)C)CCc2c1ccc(Nc1ncc(Cl)c(N[C@H]3[C@@H](C(N)=O)[C@@H]4C=C[C@H]3C4)n1)c2OC (single isomer, unassigned) [Example 1346]
8. COc1cc2c(cc1Nc1ncc(Cl)c(Nc3ccc(N4CCOCC4)cc3OC)n1)CCN(C(=O)CN(C)C)CC2 [Example 1121]

Ans.
100 to 1000 nM
< 100 nM
> 10000 nM
100 to 1000 nM
1000 to 10000 nM
100 to 1000 nM
1000 to 10000 nM
> 10000 nM

# batch: return IC50 for each of the 6 molecules below
1. COCCN1CCc2cc(Nc3ncc(Cl)c(Nc4cc(C(N)=O)ccc4OC)n3)c(OC)cc2CC1 [Example 1140]
2. CCNC(=O)c1cccc(F)c1Nc1nc(Nc2cc3c(cc2OC)CCN(CC(=O)N(C)C)CC3)ncc1Cl [Example 1119]
3. COCCN1CCc2ccc(Nc3ncc(Cl)c(Nc4ccccc4OCC(=O)O)n3)cc2CC1 [Example 1242]
4. C#CCNC(=O)c1sccc1Nc1nc(Nc2ccc3c(c2)OCCCN3C(=O)OCCCN(C)C)ncc1Cl [Example 1429]
5. COc1ccc2c(c1Nc1ncc(Cl)c(Nc3ccccc3-n3cccn3)n1)CCC(NCC(F)F)CC2 (stereo not shown) [Example 1076]
6. COc1cc2c(cc1Nc1ncc(Cl)c(N[C@H]3[C@@H](C(N)=O)[C@@H]4C=C[C@H]3C4)n1)CCC(NCC(F)F)CC2 (single isomer, unassigned) [Example 1054]

Ans.
["> 10000 nM", "1000 to 10000 nM", "100 to 1000 nM", "100 to 1000 nM", "> 10000 nM", "> 10000 nM"]

Respectfully, I request IC50 for each entry included below.
1. COc1cc2c(cc1Nc1ncc(Cl)c(N[C@H]3[C@@H](C(N)=O)[C@@H]4C=C[C@H]3C4)n1)CCN(CCS(C)(=O)=O)CC2 [Example 1128]
2. COCCNC1CCc2cc(Nc3ncc(Cl)c(Nc4ccccc4S(=O)(=O)N4CCC(O)C4)n3)c(OC)cc2CC1 (stereo not shown) [Example 1082]
3. CCN1C(=O)C(N(C)C)CCc2c1ccc(Nc1ncc(Cl)c(Nc3ccccc3-n3cccn3)n1)c2OC (stereo not shown) [Example 1349]
4. CCN1C(=O)CCCc2ccc(Nc3ncc(Cl)c(Nc4ccc(OCC#N)cc4)n3)cc21 [Example 1226]
5. CNC(=O)CN1CCc2ccc(Nc3ncc(Cl)c(N[C@@H]4CCCC[C@H]4NS(C)(=O)=O)n3)cc2CC1 [Example 1374]
6. COCCN1CCc2ccc(Nc3ncc(Cl)c(Nc4c(F)cccc4OCCCOCc4ccccc4)n3)cc2CC1 [Example 1284]
7. C#CCNC(=O)c1cccc(F)c1Nc1nc(Nc2ccc3c(c2)NC(=O)C(N)CC3(C)C)ncc1Cl (stereo not shown) [Example 1280]

Ans.
1: > 10000 nM; 2: 1000 to 10000 nM; 3: > 10000 nM; 4: 1000 to 10000 nM; 5: 100 to 1000 nM; 6: 1000 to 10000 nM; 7: < 100 nM

For CNC(=O)c1cc(-c2ccc(C#N)cc2)cc(F)c1Nc1nc(Nc2ccc3c(c2)NC(=O)CCC3)ncc1Cl [Example 1420] the molecule record lists IC50 as 100 to 1000 nM

Values from patent US8148391B2
